# measured on: T1, R-PE-labeled recombinant human LAG-3-Fc chimera protein (R&D Systems) (human, UniProt P18627 23-450, conjugated to R-phycoerythrin)
# T1 construct: bought; also called LAG-3-Fc-PE; soluble LAG-3; not shown: Fc of the bought chimera, not described
# T1 sequence: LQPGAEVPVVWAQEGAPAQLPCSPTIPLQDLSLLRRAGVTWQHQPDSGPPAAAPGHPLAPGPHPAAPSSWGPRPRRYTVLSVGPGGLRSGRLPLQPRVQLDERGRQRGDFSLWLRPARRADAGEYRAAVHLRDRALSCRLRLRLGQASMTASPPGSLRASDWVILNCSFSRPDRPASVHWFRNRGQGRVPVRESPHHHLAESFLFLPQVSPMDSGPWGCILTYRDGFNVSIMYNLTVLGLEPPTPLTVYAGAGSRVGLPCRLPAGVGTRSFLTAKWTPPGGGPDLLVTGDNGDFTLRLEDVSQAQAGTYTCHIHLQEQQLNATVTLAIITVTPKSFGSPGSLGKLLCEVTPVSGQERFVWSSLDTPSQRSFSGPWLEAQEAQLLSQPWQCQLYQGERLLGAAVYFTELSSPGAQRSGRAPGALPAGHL
# experiment notes: flow cytometric competition, LAG-3-Fc-PE binding to MHCII on A375 cells, antibody 20 ug/mL
List of LAG-3/MHCII Blocking (%) values.
Only the number, expressed in %, is required.

binder | readout unit | LAG-3/MHCII Blocking (%)
antibody 15431 (antibody, human IgG1, kappa, L234A L235A, V domains shown, OmniRat-derived human IgG1 LALA, kappa; also called 15431 (38); 15431 (83)) VH: QVQLQQSGPGLVKPSQTLSLTCAISGDSVSSNSAAWNWIRQSPSRGLEWLGRTYYRSKWYNDYAVSVKSRITINPDTSKNQFSLQLNSVTPEDTAVYYCARDDDWNDFDYWGQGTLVTVSS VL: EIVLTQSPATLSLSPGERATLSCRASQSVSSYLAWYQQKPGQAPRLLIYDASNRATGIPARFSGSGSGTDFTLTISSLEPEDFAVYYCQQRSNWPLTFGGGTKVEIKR | % | 92
antibody 15595 (antibody, V domains shown, OmniRat-derived human IgG1 LALA, kappa; also called 15595 (52)) VH: QVQLVQSGAEVKKPGASVKVSCKVSGYSLTEISMHWVRQAPGKGLEWMGGFDPEDGETIYAQRFQGRVIMTEDTSTDTAYMELSSLRSEDTAVYYCATGGWGPNWFDPWGQGTLVTVSS VL: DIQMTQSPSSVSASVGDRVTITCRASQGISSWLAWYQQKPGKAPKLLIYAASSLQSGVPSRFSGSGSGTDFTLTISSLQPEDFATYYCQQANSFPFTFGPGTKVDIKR | % | 94
antibody 15646 (antibody, human IgG1, kappa, L234A L235A, V domains shown, OmniRat-derived human IgG1 with L234A/L235A (LALA), kappa; also called 15646 (15)) VH: QVQLQQWGAGLLKPSETLSLTCAVYGGSFSGYYWSWIRQPPGKGLEWIGEINHRGSTNYNPSLKSRVTISVDTSKNQFSLKLSSVTAADTAVYYCTRGEEWESLFFDYWGQGTLVTVSS VL: EIVLTQSPATLSLSPGERATLSCRASQSISSYLAWYQQKPGQAPRLLIYGASNRATGIPARFSGSGSGTDFTLTISSLEPEDFAVYYCQQRSNWPLTFGGGTRVEIKR | % | 49

Below: the item to evaluate.
Q: Param item = antibody 15723 (antibody, human IgG1, kappa, L234A L235A, V domains shown, OmniRat-derived human IgG1 LALA, kappa; also called 15723 (39)) VH: QVQLQQWGAGLLKPSETLSLTCAVYGGSFSGYYWNWIRQPPGKGLEWIGEINHSGSTNYNPSLKSRVTISVDTSKNQFSLKLSSVTAADTAVYYCARGEDWGESFFDYWGQGTLVTVSS VL: EIVLTQSPATLSLSPGERATLSCRASQSVSSYLAWYQQKPGQAPRLLIYAASNRATGIPARFSGSGSGTDFTLTISSLEPEDFAVYYCQQRSNWPLTFGGGTKVEIKR ; retrieve measured LAG-3/MHCII Blocking (%).
Ans: 55
